assay: YAP1 pathway inhibitors via CTGF transcript, primary screen, DLD1 colon cancer cells, RT-qPCR, single point (AID 743449); conditions: DLD1 CTGF mRNA qPCR, 24 h; at 12.5 µM; active compounds read high;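 also: 0% = neutral control wells and 100% = dasatinib control wells; higher means stronger suppression of CTGF expression like dasatinib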
In all, about 9,900 compounds went through this assay and about 90 (0.9%) were called active. Another 2% or so got no clear call; they are omitted. This is one part of a sample in which actives are shown more often than they occur.
Catalogue of compounds with associated inhibition
Only the number, expressed in %, is required.

As a guide, the following entries are already answered.
1) C[C@H]1CN([C@@H](C)CO)C(=O)c2ccccc2-c2ccccc2CO[C@H]1CN(C)Cc1cccc2c1OCCCO2 24
2) C[C@@H]1CN([C@H](C)CO)C(=O)Cc2cc(N(C)C)ccc2O[C@H]1CN(C)Cc1ccc(-c2ccccc2)cc1 -24.6
3) CS(=O)(=O)N1CC(=O)N2[C@H](C1)[C@@H](c1ccc(C#Cc3ccc(F)cc3)cc1)[C@@H]2CO 63.2
4) O=C(c1cccc(F)c1)N1CCCCN2[C@H](CO)[C@H](c3ccc(C#CC4(O)CCCC4)cc3)[C@@H]2C1 58.8
5) O=C(CC1CC1)N1CC(=O)N2[C@H](C1)[C@H](c1ccc(C#Cc3cccc(F)c3)cc1)[C@@H]2CO 23.8

Now consider a different compound.
Value of inhibition reported for the compound COCC(=O)N1[C@H](CO)[C@H](c2ccc(C#CC(C)C)cc2)[C@@H]1CNC(C)=O is 26.8
